B1: H2-Kb / E9 (parent)
chain 1: QQKVQQSPESLTVSEGAMASLNCTFSDRSSDNFRWYRQHSGKGLEVLVSIFSDGEKEEGSFTAHLNRASLHVFLHIREPQPSDSALYLCAVSRSSGSWQLIFGSGTQLTVMP
chain 2: NSGVVQSPRYIIKGKGERSILKCIPISGHLSVAWYQQTQGQELKFFIQHYDKMERDKGNLPSRFSVQQFDDYHSEMNMSALELEDSAVYFCASSRDSNNQAPLFGEGTRLSVL
chain 3: not shown
chain 4: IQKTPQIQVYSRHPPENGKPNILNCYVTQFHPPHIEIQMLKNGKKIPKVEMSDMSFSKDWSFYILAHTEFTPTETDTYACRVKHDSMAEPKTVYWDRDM
chain 5: SIINFEKL

Variants of: B1
procedure_summary: % of reporter cells activated (NFAT-GFP), raw; note: test concentration or dose not given here
measurement_context: with E9; scale: % of reporter cells activated
property_name: ratio to parent

Look over these answered cases.
| mutation_key | ratio to parent |
| --- | --- |
| chain 5 E6W | 2.07 |
| chain 5 I2P | 1.77 |
| chain 5 L8H | 1.92 |
| chain 5 L8S | 0.886 |
| chain 5 I2Y | 1.53 |

P = chain 5 N4T
Q = chain 5 L8Q
R = chain 5 I2A
Task item: Please put the entries in order of rising ratio to parent. Form field (ranking): labels in requested order.
Reply: Q, P, R
(Q: 0.898, P: 1.47, R: 2.22)

A = chain 5 L8I
B = chain 5 F5E
C = chain 5 I3C
Task item: Please put the entries in order of rising ratio to parent. Form field (ranking): labels in requested order.
Reply: A, C, B
(A: 0.988, C: 1.65, B: 2.43)

1 = chain 5 K7V
2 = chain 5 K7C
Task item: Name the one with the greater ratio to parent value, either 1 or 2 as given. Your answer should be the label attached to the chosen record.
Reply: 2
(2: 3.02, 1: 1.71)
